- method.summary: JC-1 mitochondrial signal, unstimulated adipocytes – cell-based, JC-1 fluorescence, 3T3-L1 adipocytes, 24 h, 100 nL compound, profiling panel (AID 1168); note: test concentration not given here
- assay.setup: JC-1 mitochondrial fluorescence, higher = more signal, called active from +8 up or from −8 down
Reported z-score values are given for each entry in this list.
Answer field: number only, no words.

These solved cases illustrate the format of a correct answer.
COC(=O)[C@@]1(Cc2ccc(F)cc2)[C@H]2c3cc(C(=O)N4CCCC4)n(Cc4ccccn4)c3C[C@H]2CN1C(=O)c1ccccc1 ... -0.474
C[N+](C)(C)CCCC[C@@H]1NC(=O)[C@H]2C[C@@H](C(=O)NCCCCCNC(=O)CS)[C@@H](c3cccc(OCCO)c3)N2C1=O ... 0.127
COc1ccc([Si](C)(C)[C@H]2[C@H](CC(=O)N3CCC[C@H]3CO)O[C@@]3(C(=O)N(Cc4ccc(N5CCCCC5=O)cc4)c4ccccc43)[C@@H]2C)cc1 ... -0.774

query: Quick check: z-score of CC(C)C(CO)N1C(=O)[C@@H]2C3C(=O)OCCC/C=C\[C@H]3OC23C=CCN(Cc2ccccc2)C(=O)[C@@H]13 (some centres not stated) ?
result: 0.256

query: For COc1ccc([Si](C)(C)[C@@H]2[C@@H](CC(=O)N3CCC[C@H]3CO)O[C@]3(C(=O)N(Cc4cccc(N5CCCCC5=O)c4)c4ccccc43)[C@H]2C)cc1 then?
result: -0.191

query: For CC(C)C(=C=CC[C@H](O)c1ccccc1OCCO)C[C@H](O)c1cc(Cl)cc(Cl)c1O then?
result: 0.427

query: For O=C(NCCN1CCOCC1)[C@@H]1c2ccccc2C(=O)N(Cc2ccc(OC(F)(F)F)cc2)[C@H]1c1ccc(CO)cc1 then?
result: 0.229

* * *

- method.summary: resazurin metabolic signal in A549 cells – cell-based, resazurin fluorescence, 24 h, PK04 Diversity Set, profiling panel (AID 1171); note: test concentration not given here
- assay.setup: A549 viability, higher = more signal, called active from +8 up or from −8 down
measure.name: z-score
Answer field: number only, no words.

These solved cases illustrate the format of a correct answer.
COc1ccc(C(O)C2C=CC3C(=O)N(c4ccccc4)C(=O)C3N2Nc2ccc([N+](=O)[O-])cc2)c2ccccc12 (centres undefined) ... 0.604
N#Cc1ccc(C(O)C2C=CC3C(=O)NC(=O)C3N2Nc2ccc(Cl)cc2Cl)cc1 (centres undefined) ... -0.123
[N-]=[N+]=Nc1ccccc1C[C@@]1(C(=O)NCc2ccccc2)N=C(c2ccc(OCCCO)cc2)O[C@@H]1c1ccccc1N=[N+]=[N-] ... -0.996
COc1ccc([Si](C)(C)[C@H]2[C@H](CC(=O)N3Cc4ccccc4C[C@H]3CO)O[C@@]3(C(=O)N(C)c4ccccc43)[C@@H]2C)cc1 ... -0.299
C=C(COC)C(=O)CC[C@@H](OC(=O)c1ccccc1-c1ccccc1C(=O)O)c1ccc(OCCO)cc1 ... -0.205
COC(=O)[C@@]1(Cc2ccc(F)cc2)[C@H]2c3cc(C(=O)N(C)C)n(CCc4ccc(O)c(O)c4)c3C[C@H]2CN1C(=O)c1ccccc1 ... -0.238

query: Quick check: z-score of CCCCC(O)C1C=CC2C(=O)N(c3ccccc3)C(=O)C2N1Nc1ccc([N+](=O)[O-])cc1 (centres undefined) ?
result: 0.113

query: For COC(=O)C(CC#Cc1ccc2c(c1)[C@]1(C(=O)N2)[C@H](C(=O)NC[C@H](O)c2ccccc2)[C@H]2C(=O)O[C@H](c3ccccc3)[C@H](c3ccccc3)N2[C@@H]1c1ccccc1OCCO)C(=O)OC then?
result: 0.422

query: For O=C(N1CCOCC1)[C@@]1(Cc2ccccc2)COC(c2ccc(OCCCO)cc2)=N1 then?
result: 0.628

query: For C=CCOC(=O)[C@@H]1[C@H]2C(=O)O[C@H](c3ccccc3)[C@H](c3ccccc3)N2[C@H](c2ccc(OCCOC(=O)[C@H]3C[C@H]4C(=O)N5CCC[C@H]5C(=O)N4[C@H]3c3cccc(OCCO)c3)cc2)[C@@]12C(=O)Nc1ccc(I)cc12 then?
result: 0.0981

query: For CCCC=C(CCC)[C@@H](NC(=O)c1ccc(C(F)(F)F)cc1)c1ccc(C(F)(F)F)cc1 then?
result: 0.949

query: For O=C(NCC(O)CO)[C@@]1(CCS(=O)(=O)c2ccccc2)N=C(c2ccc(OCCCO)cc2)O[C@H]1c1ccccc1 (some centres undefined) then?
result: -0.0521

query: For CC(C)NC(=O)[C@@H]1c2ccccc2C(=O)N(Cc2ccc(OC(F)(F)F)cc2)[C@H]1c1ccc(CO)cc1 then?
result: 0.0746

query: For CCCCC(O)C1C=CC2C(=O)N(c3ccccc3)C(=O)C2N1Nc1ccccc1 (centres undefined) then?
result: 0.134
